Origin of values: paper PMC2677757

// IC50 collected for rSULT1A1 (Rattus norvegicus, UniProt P17988)

Problem: Observed IC50 on rSULT1A1 (Rattus norvegicus, UniProt P17988) for Oc1ccc(-c2ccc(Cl)c(Cl)c2)c(Cl)c1 [4′-OH PCB 33, 2,3′,4′-Trichloro-biphenyl-4-ol] , please.
Sequence (P17988 whole entry): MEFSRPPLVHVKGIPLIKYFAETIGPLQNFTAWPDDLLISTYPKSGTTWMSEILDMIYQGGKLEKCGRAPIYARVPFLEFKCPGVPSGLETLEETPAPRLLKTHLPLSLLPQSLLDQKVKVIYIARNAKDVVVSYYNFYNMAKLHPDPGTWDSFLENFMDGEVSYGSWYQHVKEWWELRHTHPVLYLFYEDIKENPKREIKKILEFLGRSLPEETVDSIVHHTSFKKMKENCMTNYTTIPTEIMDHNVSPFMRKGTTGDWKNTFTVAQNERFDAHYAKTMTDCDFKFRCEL
Solution: 26.2 µM

Problem: Identify the measured IC50 of Oc1ccc(-c2ccccc2Cl)cc1Cl [4′-OH PCB 6, 3,2′-Dichloro-biphenyl-4-ol] for rSULT1A1 (Rattus norvegicus, UniProt P17988).
Solution: 22.7 µM

====

Solubility reference
# TEST PROTOCOL: Solubility of OHPCBs in the SULT assay buffer by light scattering at 400 nm
# Type: physicochemical
# PROTOCOL CONDITIONS: 37 °C, pH 7, aqueous buffer, kinetic from dmso stock
All answers are understood in µM, so give the number only.

Problem: Look at this molecule and give its reported Solubility. Oc1ccc(-c2ccc(Cl)c(Cl)c2)c(Cl)c1 [4′-OH PCB 33, 2,3′,4′-Trichloro-biphenyl-4-ol]
Solution: 50

Problem: Which measured Solubility value corresponds to Oc1ccc(-c2ccccc2Cl)cc1Cl [4′-OH PCB 6, 3,2′-Dichloro-biphenyl-4-ol] ?
Solution: 250
